These measurements were taken from patent US20250368649A1.

TESTED ON: KRas Q61H (Homo sapiens, UniProt P01116, Q61H)
Sequence (P01116 1-169 isoform P01116-2 Q61H): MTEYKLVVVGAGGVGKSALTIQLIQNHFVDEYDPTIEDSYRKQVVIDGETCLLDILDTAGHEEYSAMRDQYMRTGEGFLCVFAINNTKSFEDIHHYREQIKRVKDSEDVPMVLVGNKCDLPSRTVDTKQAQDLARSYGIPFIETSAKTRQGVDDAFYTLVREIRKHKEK
ASSAY EXPLANATION: KRas binding assay (TR-FRET displacement), KRas Q61H
REPORTED CONDITIONS: single point, 10 nM compound
QUANTITY KIND: inhibition at 0.01 µM (%)
Write the answer as a number in %, unit excluded.

Here is how some compounds turned out for inhibition at 0.01 µM.
STRUCTURE	UNIT INFO	inhibition at 0.01 µM
CCNC(=O)c1nn2c(c1C)CN(c1nc(OC[C@@]34CCCN3C[C@H](F)C4)nc3c1CCN(c1cc(O)cc4ccc(F)c(CC)c14)C3)CCC2	%	92
CCc1c(F)ccc2cc(O)cc(N3CCc4c(nc(OC[C@@]56CCCN5C[C@H](F)C6)nc4N4CCCn5nc(C(=O)N(C)CCOCCOC)cc5C4)C3)c12	%	97
CCc1c(F)ccc2cc(O)cc(N3CCc4c(nc(OC[C@@]56CCCN5C[C@H](F)C6)nc4N4CCCn5nc(C(=O)NC)c(Cl)c5C4)C3)c12	%	99
CCc1c(F)ccc2cc(O)cc(N3CCc4c(nc(OC[C@@]56CCCN5C[C@H](F)C6)nc4N4CCCn5nc(C(=O)NCCOC)cc5C4)C3)c12	%	93
CCc1c(F)ccc2cc(O)cc(N3CCc4c(nc(OC[C@@]56CCCN5C[C@H](F)C6)nc4N4CCCCn5nc(C(=O)N6CCOCC6)cc5C4)C3)c12	%	97

Field: next compound
stdin: # lookup: inhibition at 0.01 µM of `CCc1c(F)ccc2cc(O)cc(N3CCc4c(nc(OC[C@@]56CCCN5C[C@H](F)C6)nc4N4CCCn5nc(C(=O)N6CC7CC6C7)cc5C4)C3)c12`
stdout: 96
